tested on: RD; experiment: Cytotoxicity; assay type: cell-based, human; settings: read-out: 50% Cytotoxic concentration CC50, line of ma-EV-D68
value-type: CC50 (µM)

>>> df
                                   compound  value_type  observed
0  Cc1cc(-c2noc(C(F)(F)F)n2)ccc1OCCCc1cc(C(=O)N(C)C)no1 [compound 11526092]        CC50       9.4
